Tested on: LOX IMVI melanoma
Method: NCI tumour cell line growth inhibition, 48 h; in the data active = GI50 below about 0.43 µM; inactive = the rest
Possible outcomes: active, inactive

| Compound | Class assignment |
| --- | --- |
| O=C(Cn1c(=O)c(-c2ccccc2)nc2ccccc21)Nc1ccc(F)cc1 | inactive |
| Cc1cc(NCCN(C(C)C)C(C)C)nc(/N=C(\N)Nc2ccc(Cl)c(C(F)(F)F)c2)n1 | active |
| CC(=O)OC[C@]12CC[C@@H](C(=O)CBr)[C@@H]1[C@H]1CC[C@@H]3[C@@]4(C)CCCNC(C)(C)[C@@H]4CC[C@@]3(C)[C@]1(C)CC2 | inactive |
| CCOC(=O)c1cc2c(n1Cc1cccc(OC)c1)-c1oncc1CCC2 | inactive |
| CCCc1cc(=O)[nH]c(-n2nc(C)cc2C)n1 | inactive |
| COC(=O)[C@@]12OC[C@]34[C@H]([C@@H](O)[C@@H]1O)[C@@]1(C)[C@H](O)C(=O)C=C(C)[C@@H]1C[C@H]3OC(=O)C(OC(C)=O)[C@@H]24 (some centres undefined) | active |
| Cc1cc(Cl)ccc1Nc1nc(C(F)(F)F)ccc1C(=O)N/N=C/c1ccc(Cl)cc1 | inactive |
| C=C1/C(=C\C=C2/CCC[C@]3(C)[C@@H]([C@H](C)CCCC(C)(C)O)CC[C@@H]23)C[C@@H](OC(=O)CBr)C[C@@H]1O | active |
| O=c1oc(Cl)c(Cl)c2ccccc12 | inactive |
